Task for the reader: assign each of the following molecules its reported pIC50.
biological target: Sodium-dependent dopamine transporter (Rattus norvegicus); assay: Displacement of [125I]RTI55 from DAT in Sprague-dawley rat striatum by liquid scintillation spectrophotometry
Sequence (P23977 whole entry): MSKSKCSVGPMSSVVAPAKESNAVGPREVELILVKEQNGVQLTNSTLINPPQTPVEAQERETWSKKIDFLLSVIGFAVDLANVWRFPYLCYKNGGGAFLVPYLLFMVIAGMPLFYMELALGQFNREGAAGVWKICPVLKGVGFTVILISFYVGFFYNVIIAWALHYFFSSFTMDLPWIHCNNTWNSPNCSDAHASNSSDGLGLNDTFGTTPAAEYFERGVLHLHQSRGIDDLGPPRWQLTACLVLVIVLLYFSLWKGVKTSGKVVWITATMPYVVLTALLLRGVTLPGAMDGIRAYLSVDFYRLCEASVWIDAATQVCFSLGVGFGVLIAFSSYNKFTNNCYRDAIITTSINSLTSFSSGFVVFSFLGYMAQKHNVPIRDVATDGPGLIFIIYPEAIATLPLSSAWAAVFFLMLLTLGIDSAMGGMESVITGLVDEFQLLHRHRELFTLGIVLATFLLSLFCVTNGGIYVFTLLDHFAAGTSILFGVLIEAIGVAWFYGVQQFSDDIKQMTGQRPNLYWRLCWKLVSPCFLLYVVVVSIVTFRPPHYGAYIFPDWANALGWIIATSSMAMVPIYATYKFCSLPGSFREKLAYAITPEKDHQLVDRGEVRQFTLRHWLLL
Answers are plain numbers, as −log10 of the molar value.

smiles.code: CNCC[C@@H](c1ccc(Cl)c(Cl)c1)c1cccc2[nH]ccc12
measurement.target: Sodium-dependent dopamine transporter (Rattus norvegicus)
pIC50: 7.83
//
smiles.code: CNCCC[C@@H](c1ccc(Cl)c(Cl)c1)c1cccc2[nH]ccc12
measurement.target: Sodium-dependent dopamine transporter (Rattus norvegicus)
pIC50: 7.84
//
smiles.code: CNCCC[C@@H](c1cccs1)c1cccc2ccccc12
measurement.target: Sodium-dependent dopamine transporter (Rattus norvegicus)
pIC50: 6.39
//
smiles.code: CNCC[C@H](c1cccs1)c1cccc2ccccc12
measurement.target: Sodium-dependent dopamine transporter (Rattus norvegicus)
pIC50: 6.51
//
smiles.code: CNCCC[C@H](c1cccs1)c1cccc2ccccc12
measurement.target: Sodium-dependent dopamine transporter (Rattus norvegicus)
pIC50: 6.33

Your task in this section: give pIC50 for each listed record.
1. CNCC[C@H](c1ccc(Cl)c(Cl)c1)c1cccc2[nH]ccc12
2. CNCC[C@@H](c1ccc(Cl)c(Cl)c1)c1cccc2ccccc12
3. CNCC[C@@H](c1cccs1)c1cccc2ccccc12

Response line:
[8.14, 7.45, 6.64]

---

target: Sodium-dependent serotonin transporter (Rattus norvegicus, UniProt P31652)
Sequence (P31652 whole entry): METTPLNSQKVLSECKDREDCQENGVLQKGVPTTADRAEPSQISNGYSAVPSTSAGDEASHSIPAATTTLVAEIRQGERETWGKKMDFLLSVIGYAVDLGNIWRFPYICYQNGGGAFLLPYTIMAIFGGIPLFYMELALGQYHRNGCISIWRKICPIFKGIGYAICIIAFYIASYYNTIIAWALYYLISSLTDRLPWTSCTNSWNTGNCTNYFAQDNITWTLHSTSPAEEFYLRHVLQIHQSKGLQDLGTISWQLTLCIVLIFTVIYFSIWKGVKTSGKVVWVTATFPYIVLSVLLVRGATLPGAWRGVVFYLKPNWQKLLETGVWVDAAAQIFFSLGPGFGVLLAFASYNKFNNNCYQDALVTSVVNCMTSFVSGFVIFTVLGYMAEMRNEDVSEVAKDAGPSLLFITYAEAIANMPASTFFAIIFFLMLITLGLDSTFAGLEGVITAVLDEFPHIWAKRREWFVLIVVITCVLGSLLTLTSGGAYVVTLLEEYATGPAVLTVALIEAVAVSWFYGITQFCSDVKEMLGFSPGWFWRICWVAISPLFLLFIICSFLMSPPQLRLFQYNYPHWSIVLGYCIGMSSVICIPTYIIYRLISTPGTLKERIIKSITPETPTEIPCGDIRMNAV
readout.name: log10(Ki) (log10 of the value in nM)
All values: base-10 log of Ki in nM.

Here is how some molecules turned out for log10(Ki).
smiles.code: CNCCC[C@H](c1ccc(Cl)c(Cl)c1)c1cccc2[nH]ccc12
log10(Ki): -0.09
//
smiles.code: CNCC[C@H](c1ccc(Cl)c(Cl)c1)c1cccc2[nH]ccc12
log10(Ki): 0.23
//
smiles.code: CNCC[C@H](c1cccs1)c1cccc2ccccc12
log10(Ki): 1.48

Your task in this section: give log10(Ki) for each listed record.
1. CNCCC[C@@H](c1cccs1)c1cccc2ccccc12
2. CNCCC[C@H](c1cccs1)c1cccc2ccccc12

Response line:
0.98
1.60

Your task in this section: give log10(Ki) for each listed record.
1. CNCCC[C@H](c1cccs1)c1cccc2[nH]ccc12
2. CNCC[C@@H](c1ccc(Cl)c(Cl)c1)c1cccc2ccccc12
3. CNCC[C@@H](c1cccs1)c1cccc2ccccc12

Response line:
1.86
1.93
1.08
